# System: ATP;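 note: ATP exposure 15 min at 22 °C before imaging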
# EXPERIMENTAL PROTOCOL: switch fluorescence ratio, 500 uM ATP over buffer (Cy3 cluster intensity, sum of 5 cycles each) (fold (ratio)); higher = stronger signal-on switching upon ATP binding; sequences stand for … in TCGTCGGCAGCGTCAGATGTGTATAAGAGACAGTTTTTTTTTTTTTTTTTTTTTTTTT…TC
# CONDITION DESCRIPTION: aptamer strand: ATP DNA aptamer (quencher-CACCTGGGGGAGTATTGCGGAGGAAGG + anchor), 100 nM annealed; ATP concentration: 500 uM
OBSERVABLE: switch fluorescence ratio

I'm hoping you can list switch fluorescence ratio for every sequence here, please.
1. TGTGTTTAGT
2. GTGATGGGTT
3. GACGGAGTCG
4. TGAGAGGAAG
5. TTCCAGGCGT
6. ATGTAACTTT
7. ATATATATCG

Outgoing:
1.01
0.953
0.997
0.989
1.23
1.16
1.01

For every item in the list below, what is its measured switch fluorescence ratio?
1. ATGTTGAACT
2. ATAAAGGTCT
3. ATTCGCAGCA
4. CCTTTGTTAT
5. AAGGGGTGAA
6. CATTTAGTTG
7. AGGGGGTTT
8. AGTCAGAGTA

Outgoing:
[0.99, 0.984, 1.22, 1.05, 0.989, 0.985, 1.02, 0.982]

List reported switch fluorescence ratio for each of these sequences:
1. GATTGCGAGG
2. AACATGTTGG
3. ATATGTTTTT
4. TAAGGGATGT
5. CTGTTTATTG
6. AAAAGCAGTT
7. GCGGAATAGG

Outgoing:
1. 0.989
2. 0.991
3. 0.996
4. 0.995
5. 0.977
6. 1.03
7. 1.04

Provide reported switch fluorescence ratio for each item, in the same order as listed.
1. AAGGGGTGGG
2. CTCGGGGCGG
3. TGGGTTATCT
4. GCAGTATGCT
5. ATGTAGGGTC
6. GACTGGCATA

Outgoing:
[1.02, 1.02, 0.972, 1.01, 1.02, 1.1]

----------
Kindly state switch fluorescence ratio for each of the entries shown.
# Tested on: ATP;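 note: ATP exposure 15 min at 22 °C before imaging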
# EXPERIMENTAL PROTOCOL: switch fluorescence ratio, 500 uM ATP over buffer (Cy3 cluster intensity, sum of 5 cycles each) (fold (ratio)); higher = stronger signal-on switching upon ATP binding; sequences stand for … in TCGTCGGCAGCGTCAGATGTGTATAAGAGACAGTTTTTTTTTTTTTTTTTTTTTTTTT…TC
# CONDITION DESCRIPTION: aptamer strand: ATP DNA aptamer (quencher-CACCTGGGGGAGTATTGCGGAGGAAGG + anchor), 100 nM annealed; ATP concentration: 500 uM
One number for each entry.

ITEM SEQUENCE	switch fluorescence ratio
TAATTTAGTA	0.993
TTTAAGGGGT	0.991
GGAAGGGGGC	0.971

Parameters: items (list). Returns: switch fluorescence ratio for each item.
1. GGTTAACCTG
2. ATCGTTCCGC

Outgoing:
[0.996, 1.22]

----------
# Tested on: ATP;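 note: ATP exposure 15 min at 22 °C before imaging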
# EXPERIMENTAL PROTOCOL: switch fluorescence ratio, 500 uM ATP over buffer (Cy3 cluster intensity, sum of 5 cycles each) (fold (ratio)); higher = stronger signal-on switching upon ATP binding; sequences stand for … in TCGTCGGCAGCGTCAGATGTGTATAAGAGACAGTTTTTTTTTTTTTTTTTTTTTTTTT…TC
# CONDITION DESCRIPTION: aptamer strand: ATP DNA aptamer (quencher-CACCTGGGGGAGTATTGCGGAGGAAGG + anchor), 100 nM annealed; ATP concentration: 500 uM
OBSERVABLE: switch fluorescence ratio

# example entries with known answers
ITEM SEQUENCE	SYSTEM	TEST VALUE
CAGGTCTTAA	ATP	0.972
ACCTGTTTGT	ATP	1.01
GGGTGGGGGC	ATP	1.02

Record switch fluorescence ratio per entry; entries follow.
1. ATGTAGATAT
2. TCGAATATCA
3. GACGGGGGGC
4. GACTGGGGAG

Outgoing:
1. 1.01
2. 1.01
3. 1.02
4. 0.991

Hi, could you look up switch fluorescence ratio for each item in my list?
1. AAAAGGTTGT
2. ATGGTAAACC
3. TTTAAGTTTC
4. TTCAGGATGT
5. TTAGGCTTGG

Outgoing:
1: 0.999; 2: 1.16; 3: 1; 4: 1; 5: 1.06

Required: switch fluorescence ratio, one value per sequence below.
1. TGTGGGGTAG
2. TAGGGGGGTT

Outgoing:
1: 1.01; 2: 1

Consider the following items and state reported switch fluorescence ratio for each.
1. TTGGTTTGGT
2. TTTATAGAGC
3. ACCAATCGGG

Outgoing:
[0.988, 1.03, 0.992]

----------
# Test system: ATP;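 note: ATP exposure 15 min at 22 °C before imaging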
# EXPERIMENTAL PROTOCOL: switch fluorescence ratio, 500 uM ATP over buffer (Cy3 cluster intensity, sum of 5 cycles each) (fold (ratio)); higher = stronger signal-on switching upon ATP binding; sequences stand for … in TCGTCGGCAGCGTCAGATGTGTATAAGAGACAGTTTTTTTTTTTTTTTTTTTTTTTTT…TC
# CONDITION DESCRIPTION: aptamer strand: ATP DNA aptamer (quencher-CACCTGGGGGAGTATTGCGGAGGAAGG + anchor), 100 nM annealed; ATP concentration: 500 uM
OBSERVABLE: switch fluorescence ratio
Give bare numbers.

// solved cases for switch fluorescence ratio follow
ITEM SEQUENCE	switch fluorescence ratio
GGCGAAAATA	1.01
TTGGGGCGTG	0.971
TTTTTTGGTC	1.03
CGGACGGGGG	0.999
GTCGTTTGGA	1.01
AACGGTGATT	1.01

Respectfully, I request switch fluorescence ratio for each entry included below.
1. TAATGCGCAA
2. GACGGGATCA

Outgoing:
1. 2.56
2. 1.02

Please state, for each entry, its recorded switch fluorescence ratio.
1. TTAAGGTGTG
2. AACAGGGGGG

Outgoing:
1: 1.02; 2: 1.02

----------
# Test system: ATP;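 note: ATP exposure 15 min at 22 °C before imaging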
# EXPERIMENTAL PROTOCOL: switch fluorescence ratio, 500 uM ATP over buffer (Cy3 cluster intensity, sum of 5 cycles each) (fold (ratio)); higher = stronger signal-on switching upon ATP binding; sequences stand for … in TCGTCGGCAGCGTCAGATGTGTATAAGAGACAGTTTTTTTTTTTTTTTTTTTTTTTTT…TC
# CONDITION DESCRIPTION: aptamer strand: ATP DNA aptamer (quencher-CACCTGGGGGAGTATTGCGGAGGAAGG + anchor), 100 nM annealed; ATP concentration: 500 uM
OBSERVABLE: switch fluorescence ratio
Give bare numbers.

The examples below pair each entry with its known result.
ITEM SEQUENCE	TEST VALUE
TCGAGATGTA	1.03
AGGAGCGGTA	1.1
TAAGGCAATT	1.06
TTTCTCAGTT	0.977

Record switch fluorescence ratio for all entries; do not skip any.
1. GGGTAATTGG
2. GTTTAAAATG
3. TGAGTATGGT
4. CCAATAGTTC
5. GGGGGACAGG
6. TTTTGGGTCA

Outgoing:
1: 0.986; 2: 1; 3: 1; 4: 1.08; 5: 1.05; 6: 1.02

// each sequence listed below needs its switch fluorescence ratio
1. CGGTTGCTTA
2. CACTTAACAG
3. TAATGGGCGT
4. TTTCTTATTT
5. TACGTCAGTC
6. TTAGGGGCAC
7. ATAGGGATAG

Outgoing:
1. 0.987
2. 1.1
3. 1
4. 1
5. 1.05
6. 0.993
7. 1.01

----------
# Tested on: ATP;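 note: ATP exposure 15 min at 22 °C before imaging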
# EXPERIMENTAL PROTOCOL: switch fluorescence ratio, 500 uM ATP over buffer (Cy3 cluster intensity, sum of 5 cycles each) (fold (ratio)); higher = stronger signal-on switching upon ATP binding; sequences stand for … in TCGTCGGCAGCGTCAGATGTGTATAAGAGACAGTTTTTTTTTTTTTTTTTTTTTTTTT…TC
# CONDITION DESCRIPTION: aptamer strand: ATP DNA aptamer (quencher-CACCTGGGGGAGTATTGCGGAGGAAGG + anchor), 100 nM annealed; ATP concentration: 500 uM
OBSERVABLE: switch fluorescence ratio
Numbers only.

Would you mind listing switch fluorescence ratio for each of the following sequences?
1. ACCTTTTGTG
2. AGGCCGAGTC
3. TTTAAGCGTT
4. CAAACTCCCA
5. GGGAACCGGG

Outgoing:
0.99
1.02
1.05
1.16
1.2

Please give switch fluorescence ratio, item by item, for the list that follows.
1. CTCTGAGGAG
2. TGTTTGTAAA
3. ATTTGTTTTC
4. TAAGGGATGG
5. GTAGTAGGGC
6. TTGGGGCGGT
7. TGCAGCGTTC
8. TATTCGATTT

Outgoing:
1.04
1.01
0.953
0.973
1.06
1.05
1.27
1.03

Batch request: switch fluorescence ratio for each of the following sequences.
1. CAAGTTGGCT
2. TTTTTCTCTT

Outgoing:
0.987
0.996
